Hello, the source for this data is PubChem BioAssay AID1159580, in case you need it.

# method: chemical genetic growth profiling, strain panel (AID 1159580);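 note: tested at 20 µM; growth read once vehicle control cultures reached saturation at 30 °C; lower values mean less growth of the strain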
# test-conditions: S. cerevisiae deletion strains, growth OD, locus YLR418C, strain cdc73, active compounds read low
Out of some 5,500 compounds screened, about 2,000 (36%) were called active. About 18% were inconclusive and are not listed. Some of the results follow.
Lab note: compare normalized growth with 1, writing met if less and not met if equal or more.

compound="Nc1c(Br)cc(Br)cc1CNC1CCC(O)CC1 (configuration not stated)" qualitative_label=met
compound=CC1=C(/C=C/C(C)=C/C=C/C(C)=C/CO)C(C)(C)CCC1 qualitative_label=met
compound="CN(Cc1cnc2nc(N)nc(N)c2n1)c1ccc(C(=O)NC(CCC(=O)O)C(=O)O)cc1 (configuration not stated)" qualitative_label=met
compound=NC(=O)N/N=C\c1ccc([N+](=O)[O-])o1 qualitative_label=met
compound=NCc1ccc(S(N)(=O)=O)cc1 qualitative_label=met
compound=Nc1nc2ncc(CNc3ccc(C(=O)N[C@@H](CCC(=O)O)C(=O)O)cc3)nc2c(=O)[nH]1 qualitative_label="not met"
compound=CC1=C(/C=C/C(C)=C/C=C/C(C)=C/C(=O)O)C(C)(C)CCC1 qualitative_label="not met"
compound=O=C1CN(/N=C\c2ccc([N+](=O)[O-])o2)C(=O)N1 qualitative_label=met
compound=CCOP(=S)(OCC)Oc1ccc2c(C)c(Cl)c(=O)oc2c1 qualitative_label=met
compound=COc1c(C(=O)O)ccc2c1CCC(C)(C)O2 qualitative_label="not met"
compound=CC[C@]12CCCN3CCc4c(n(c5ccccc45)C(=O)C1)[C@@H]32 qualitative_label=met
compound=C[C@@H]1C[C@@H]([C@H](O)CC2CC(=O)NC(=O)C2)C(=O)[C@@H](C)C1 qualitative_label=met
compound=Nc1nccs1 qualitative_label="not met"
compound="Nc1nc2c(c(=O)[nH]1)N(C=O)C(CNc1ccc(C(=O)N[C@@H](CCC(=O)O)C(=O)O)cc1)CN2 (some centres not stated)" qualitative_label=met
compound=O=C1O[C@@H](CO)[C@H](O)[C@@H](O)[C@@H]1O qualitative_label="not met"
compound=CCOC(=O)C1=C[C@]2(CC)CCCN3CCc4c(n1c1ccccc41)[C@@H]32 qualitative_label=met
